Catalogue of Condition 2 Conversion (%) readings, one per entry.
# Type: physicochemical
# runConditions: DI water, 25° C., 0.5 mM; time 4 h
Numeric answer only, unit % assumed.

Sample answers from the record:
| compound | recordedResult |
| --- | --- |
| COc1ccc([C@@]23CCC(=NNc4cnccn4)C[C@@H]2N(C)CC3)cc1OC | 12.6 |
| COc1ccc([C@]23CCN(C)[C@H]2CC2(CC3)OCC(C(=O)O)O2)cc1OC (stereo partly shown) | 0 |
| COc1ccc([C@@]23CCC(=NOCCO)C[C@@H]2N(C)CC3)cc1OC | 0 |
| COc1ccc([C@@]23CCC(=NNC(=O)CC[C@H](NC(=O)c4ccc(NCc5cnc6nc(N)nc(O)c6n5)cc4)C(=O)O)C[C@@H]2N(C)CC3)cc1OC | 100 |
| COc1ccc([C@@]23CC/C(=N\NC(=O)Nc4ccc(N5CCN(C)CC5)cc4)C[C@@H]2N(C)CC3)cc1OC | 30 |
| COc1ccc([C@@]23CCC(=NNc4ccc(C(=O)O)cc4)C[C@@H]2N(C)CC3)cc1OC | 0 |

Field: next compound
Request: Give the reported Condition 2 Conversion (%) for this compound. `COc1ccc([C@@]23CC/C(=N\NC(=O)NCCc4cccs4)C[C@@H]2N(C)CC3)cc1OC`
Response: 43
